Protocol: UVvis maximum absorption wavelength of selected dyes (Table 1)
Assay type: physicochemical
Measurement Setup: source not stated
Property: UVvis maximum (nm)

// below: answered compounds
Compound: c1ccc2c(c1)-c1nc-2nc2[nH]c(nc3nc(nc4[nH]c(n1)c1ccccc41)-c1ccccc1-3)c1ccccc21
Unit Label: nm
UVvis maximum: 698
//
Compound: CC(C)(C)c1ccc2c(c1)-c1nc3nc(nc4[nH]c(nc5[nH]c(nc-2n1)c1cc(C(C)(C)C)ccc51)c1cc(C(C)(C)C)ccc41)-c1ccc(C(C)(C)C)cc1-3
Unit Label: nm
UVvis maximum: 696
//
Compound: C1=Cc2nc1c(-c1ccccc1)c1ccc([nH]1)c(-c1ccccc1)c1nc(c(-c3ccccc3)c3ccc([nH]3)c2-c2ccccc2)C=C1 [5,10,15,20-Tetraphenyl-21H,23H-porphine]
Unit Label: nm
UVvis maximum: 514

(A) C#CCNC(=O)CCCCCN1C(=CC=CC=CC2=[N+](C)c3ccc4ccccc4c3C2(C)C)C(C)(C)c2c1ccc1ccccc21.[Cl-]
(B) CCC1=C(CC)c2cc3[nH]c(cc4nc(cc5[nH]c(cc1n2)c(CC)c5CC)C(CC)=C4CC)c(CC)c3CC
Choose between A and B : whose measured UVvis maximum value is numerically larger? In your reply, give the label of the chosen option.
A

Source listed as patent US20210275692A1.
